Entry source: ChEMBL document CHEMBL1149775

System: Staphylococcus aureus
Protocol: Antibacterial activity against Staphylococcus aureus after 24 hrs by broth dilution technique
Assay type: functional
The entries below come with measured MIC values attached.
Form entry: value (µg/mL) — number only.

Worked examples follow.
* Oc1ccccc1/N=C/c1c[nH]c2ccccc12 | 35.9
* O=C(O)CCC(/N=C/c1c[nH]c2ccccc12)C(=O)O (configuration not stated) | 19.2
* O=C(O)C(Cc1c[nH]cn1)/N=C/c1c[nH]c2ccccc12 (configuration not stated) | 3.4

Query: What does the data say about its MIC? Entry: CC(C)C(/N=C/c1c[nH]c2ccccc12)C(=O)O (configuration not stated)
Response: 16.8

Query: What does the data say about its MIC? Entry: CC(C)CC(/N=C/c1c[nH]c2ccccc12)C(=O)O (configuration not stated)
Response: 35.3

Query: What does the data say about its MIC? Entry: O=C(O)CC(/N=C/c1c[nH]c2ccccc12)C(=O)O (configuration not stated)
Response: 18.5

* * *

Tested on: Pseudomonas fluorescens
Protocol: Antibacterial activity against Pseudomonas fluorescens after 24 hrs by broth dilution technique
Format: functional
Parameter: MIC

Worked examples follow.
• O=C(O)CCC(/N=C/c1c[nH]c2ccccc12)C(=O)O (configuration not stated) = 5.7 µg/mL
• O=C(O)CC(/N=C/c1c[nH]c2ccccc12)C(=O)O (configuration not stated) = 19.3 µg/mL

Query: What does the data say about its MIC? Entry: "Oc1ccccc1/N=C/c1c[nH]c2ccccc12"
Response: 15.8 µg/mL

Query: What does the data say about its MIC? Entry: "O=S(=O)(O)c1cc(O)c(/N=C/c2c[nH]c3ccccc23)c2ccccc12"
Response: 21.6 µg/mL

Query: What does the data say about its MIC? Entry: CC(C)C(/N=C/c1c[nH]c2ccccc12)C(=O)O (configuration not stated)
Response: 38.1 µg/mL

Query: What does the data say about its MIC? Entry: O=C(O)C(Cc1c[nH]cn1)/N=C/c1c[nH]c2ccccc12 (configuration not stated)
Response: 3.8 µg/mL

Query: What does the data say about its MIC? Entry: CC(C)CC(/N=C/c1c[nH]c2ccccc12)C(=O)O (configuration not stated)
Response: > 50 µg/mL
